assay.target: Recombinant human his-tagged IGF 1R extracellular domain protein (human) (UniProt P08069)
test.details: SPR, captured IgG, IGF-1R ECD-his analyte, dissociation pH 7.4
reported.endpoint: koff (s⁻¹)
The figure you give is taken to be in s⁻¹; do not add the unit.

binder	measure.unit	koff
VRDN-02543 (antibody, V domains shown) VH: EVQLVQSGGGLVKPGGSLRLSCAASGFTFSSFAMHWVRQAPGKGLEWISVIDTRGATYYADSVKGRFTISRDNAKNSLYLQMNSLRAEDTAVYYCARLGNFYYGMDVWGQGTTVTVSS VL: EIVLTQSPGTLSVSPGERATLSCRASQSIGSSLHWYQQKPGQAPRLLIKYASQHLSGIPDRFSGSGSGTDFTLTISRLEPEDFAVYYCHQSSRLPHTFGQGTKVEIK	s⁻¹	4.38e-05
VRDN-02547 (antibody, V domains shown) VH: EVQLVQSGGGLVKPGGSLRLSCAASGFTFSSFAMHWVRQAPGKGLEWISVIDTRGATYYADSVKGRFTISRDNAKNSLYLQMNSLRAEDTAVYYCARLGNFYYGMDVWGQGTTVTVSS VL: EIVLTQSPGTLSVSPGERATLSCRASQSIGSSLHWYQQKPGQAPRLLIKYASQSLSGIPDRFSGSGSGTDFTLTISRLEPEDFAVYYCHQHSRLPHTFGQGTKVEIK	s⁻¹	1e-06

Please find the next binder below.
Bench note: what koff did VRDN-02559 (antibody, V domains shown) VH: EVQLVQSGGGLVKPGGSLRLSCAASGFTFSSFHMHWVRQAPGKGLEWISVIDTRGATYYADSVKGRFTISRDNAKNSLYLQMNSLRAEDTAVYYCHRLGNFYYGMDVWGQGTTVTVSS VL: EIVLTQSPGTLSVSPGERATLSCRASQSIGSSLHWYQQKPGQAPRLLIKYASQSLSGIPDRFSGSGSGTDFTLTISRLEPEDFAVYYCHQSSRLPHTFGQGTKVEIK show?
0.000503
